Biological target: Arachidonate 5-lipoxygenase-activating protein (Homo sapiens)
Sequence (P20292 whole entry): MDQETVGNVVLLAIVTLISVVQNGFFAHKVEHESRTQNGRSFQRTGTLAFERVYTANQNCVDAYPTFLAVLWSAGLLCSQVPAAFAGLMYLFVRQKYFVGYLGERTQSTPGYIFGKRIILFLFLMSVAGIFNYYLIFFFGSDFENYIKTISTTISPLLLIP
Experiment: Inhibition of FLAP in A23187-stimulated human neutrophils assessed as reduction in 5-LO product formation preincubated for 15 mins followed by A23187 and arachidonic acid addition and measured after 10 mins by UV based RP-HPLC analysis
pIC50: −log10 of the molar value.
endpoint-label: pIC50

# count of solved cases: 2
N#Cc1ccc2c(c1)nc(CCc1ccc(-c3cnc(N)cn3)cc1)n2Cc1ccccc1Cl : 6.59
CC(C)Cc1ccc(C(C)c2nc3cc(OCC(=O)O)ccc3n2Cc2ccccc2Cl)cc1 (stereo not given) : 6.74

(I) CC(C)Cc1ccc(C(C)c2nc3cc(OC(C)(C)C(=O)O)ccc3n2Cc2ccccc2Cl)cc1 (stereo not given)
(II) N#Cc1ccc2c(c1)nc(NCc1ccc3[nH]ccc3c1)n2Cc1ccccc1Cl
Problem: Pick one: I or II . Which has the bigger pIC50 number? Indicate which entry you chose by stating its label.
Solution: I
(I: 6.70, II: 5.42)

Values from ChEMBL document CHEMBL4229367
